Tested on: SK-MEL-2
Experiment: NCI tumour cell line growth inhibition, 48 h
The source made the active and inactive calls. No stated cut-off is given here; in the data, active = GI50 up to about 1.1 µM and inactive = higher.
property_measured: GI50

Item: `COc1cc(-c2c(C)c(C)nc(OC)c2C#N)cc(OC)c1OC` Test system: SK-MEL-2 Read-out: GI50 Value: ?
> 100 µM (inactive)

Here is the next compound: `C/N=c1/oc2ccccc2cc1C(N)=O`
> 100 µM (inactive)

Now try N#CC(C(=O)/C(=N\Nc1nc(S)nn1N)C(C#N)c1ccc(Cl)cc1)c1ccc(Cl)cc1 (stereo not given) .
> 100 µM (inactive)

// same read-out, input: NN1C(=O)C(CCO)S/C1=N/N=C1/SC(CCO)C(=O)N1N (stereo not given)
> 100 µM (inactive)

Note, next up: CSc1nc(NC2OC(COC(C)=O)C(OC(C)=O)C(OC(C)=O)C2OC(C)=O)c(/N=C\C=N/c2c(NC3OC(COC(C)=O)C(OC(C)=O)C(OC(C)=O)C3OC(C)=O)nc(SC)n(C)c2=O)c(=O)n1C (stereo not given)
32.7 µM (inactive)
